# TARGET_UNDER_TEST: GST-hHSF2 (human) (UniProt Q03933)
# Sequence: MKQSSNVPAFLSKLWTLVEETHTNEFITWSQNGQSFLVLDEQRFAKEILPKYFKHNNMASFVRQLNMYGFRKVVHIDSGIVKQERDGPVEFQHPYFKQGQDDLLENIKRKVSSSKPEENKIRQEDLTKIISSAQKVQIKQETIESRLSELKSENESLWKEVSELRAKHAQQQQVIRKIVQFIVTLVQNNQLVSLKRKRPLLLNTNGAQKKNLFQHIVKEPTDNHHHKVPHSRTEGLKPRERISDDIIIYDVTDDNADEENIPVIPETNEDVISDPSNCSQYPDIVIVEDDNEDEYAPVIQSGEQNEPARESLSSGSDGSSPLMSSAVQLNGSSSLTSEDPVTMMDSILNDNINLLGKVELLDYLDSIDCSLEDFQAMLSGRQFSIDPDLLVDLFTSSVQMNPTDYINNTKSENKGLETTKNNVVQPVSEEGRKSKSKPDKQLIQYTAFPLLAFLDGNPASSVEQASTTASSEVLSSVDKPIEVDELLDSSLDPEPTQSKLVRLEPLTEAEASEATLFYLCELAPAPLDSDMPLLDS
# EXPERIMENTAL_PROTOCOL: EMSA
# STUDY_CONDITIONS: binding buffer ([…], room temperature 2 h
pKd: −log10 of the molar value.
I'd be grateful if you could share measured pKd for these entries.

{"INPUT_SEQUENCE": "GGGAAUGGAUCCACAUCUACGAAUUCAAUCAAGUCCCCAGACUCAGCAACACUGGACAGCGAUAUGCAGAUAACCAAGACCAAUUCACUCCAGUUCACUGCAGACUUGACGAAGCUU [hHSF2-R5-2]", "TARGET_UNDER_TEST": "GST-hHSF2 (human) (UniProt Q03933)", "QUANTITY_KIND": "pKd", "RESULT": "> 7.70"}

Now for the sequence whose pKd we want.
Which pKd is reported for this sequence? GGGAAUGGAUCCACAUCUACGAAUUCCACUCCAUAGUAUCUAGAAGCCCUGCCGAAAACGAGAGCGCUUACGCUUAUAAAUGAUCAACCUACCUCGUUCACUGCAGACUUGACGAAGCUU [hHSF1-R5-1]
> 7.70
